biological target: T1, PSMA Fab (006 PSMA Fab) (biotinylated (site not given)); assay: clonal phage ELISA; biotinylated PSMA Fab on neutravidin plate, wells pre-incubated with PSMA antigen as competitor; anti-M13 HRP detection;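 note: crude clonal phage supernatants added to antigen-treated wells without a wash, incubated briefly, then bound phage read out via horse radish–conjugated anti-M13 antibody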
T1 construct: also called Anti-PSMA Fab; anti-PSMA Fab
Where no end group is shown, it is not given here.
Phage binding ELISA signal, Anti-PSMA Fab with PSMA antigen listing for selected binders.
// keep it numeric: no unit symbol after the value

>>> numeric_readout("TWKWCTPAWMCSVM (cysteine pairing not given here; also: displayed on phage as pIII fusion, fusion junction and sequence not given here, Clonal phage of the Peptide-180 library, tested as crude phage supernatant; not shown: pIII filament protein of the bacteriophage) [Phage-2649]")
0.113

Q) Look up Phage binding ELISA signal, Anti-PSMA Fab with PSMA antigen for this binder: WAKWCTPVWMCQGI (cysteine pairing not given here; also: displayed on phage pIII, linker not given here, Clonal phage of the Peptide-180 library, tested as crude phage supernatant; not shown: pIII filament protein of the bacteriophage) [Phage-2638]
A) 0.136
